Recorded values, source ChEMBL document CHEMBL4028801.

# TESTED_SYSTEM: Bile salt export pump (Homo sapiens, UniProt O95342)
# Sequence (O95342 whole entry): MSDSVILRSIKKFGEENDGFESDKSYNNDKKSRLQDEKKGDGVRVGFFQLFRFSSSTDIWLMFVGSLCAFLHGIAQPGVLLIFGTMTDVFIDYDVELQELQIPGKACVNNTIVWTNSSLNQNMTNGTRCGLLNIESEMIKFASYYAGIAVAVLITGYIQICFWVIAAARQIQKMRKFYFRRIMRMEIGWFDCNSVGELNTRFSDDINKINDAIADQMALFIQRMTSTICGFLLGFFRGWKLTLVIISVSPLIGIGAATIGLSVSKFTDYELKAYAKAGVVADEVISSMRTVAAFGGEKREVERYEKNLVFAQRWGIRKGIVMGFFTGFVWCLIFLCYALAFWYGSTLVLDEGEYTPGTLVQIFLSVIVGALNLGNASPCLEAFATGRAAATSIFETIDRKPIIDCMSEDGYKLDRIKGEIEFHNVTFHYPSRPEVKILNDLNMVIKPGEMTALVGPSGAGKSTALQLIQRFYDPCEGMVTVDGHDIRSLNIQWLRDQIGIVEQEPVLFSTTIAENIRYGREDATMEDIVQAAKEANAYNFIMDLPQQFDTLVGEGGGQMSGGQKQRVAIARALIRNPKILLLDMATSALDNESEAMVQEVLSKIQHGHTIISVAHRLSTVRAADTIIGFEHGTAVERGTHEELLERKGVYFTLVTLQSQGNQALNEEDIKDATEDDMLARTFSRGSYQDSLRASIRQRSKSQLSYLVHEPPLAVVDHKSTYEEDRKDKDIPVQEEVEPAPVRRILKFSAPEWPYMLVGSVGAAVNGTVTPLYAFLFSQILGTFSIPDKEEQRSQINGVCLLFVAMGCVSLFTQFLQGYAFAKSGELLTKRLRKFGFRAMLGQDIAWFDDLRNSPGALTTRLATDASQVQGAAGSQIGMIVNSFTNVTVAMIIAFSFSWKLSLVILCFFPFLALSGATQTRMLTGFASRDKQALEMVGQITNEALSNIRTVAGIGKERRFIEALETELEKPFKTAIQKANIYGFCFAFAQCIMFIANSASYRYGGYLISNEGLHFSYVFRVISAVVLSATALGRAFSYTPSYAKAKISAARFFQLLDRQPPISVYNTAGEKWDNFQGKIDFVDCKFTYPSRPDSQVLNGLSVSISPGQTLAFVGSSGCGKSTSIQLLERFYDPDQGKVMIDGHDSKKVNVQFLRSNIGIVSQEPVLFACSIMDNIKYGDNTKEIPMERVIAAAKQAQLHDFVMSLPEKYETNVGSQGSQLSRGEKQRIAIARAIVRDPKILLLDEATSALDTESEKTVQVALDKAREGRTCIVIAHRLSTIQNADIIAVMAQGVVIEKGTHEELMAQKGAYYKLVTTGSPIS
# METHOD: Inhibition of human BSEP overexpressed in Sf9 cell membrane vesicles assessed as uptake of [3H]-taurocholate in presence of ATP measured after 15 to 20 mins by membrane vesicle transport assay
Counter-ions that a name gives are not always drawn.
OUTCOME_MEASURE: IC50

IC50 in this record for `O=C(NC1CCN(CCc2c[nH]c3ccccc23)CC1)c1ccccc1` : > 133 µM

Input COC(=O)[C@H](c1ccccc1Cl)N1CCc2sccc2C1 [CLOPIDOGREL BISULFATE] . Output IC50: 72 µM

Short answer for CN(C)c1ccc(O)c2c1C[C@H]1C[C@H]3[C@H](N(C)C)C(O)=C(C(N)=O)C(=O)[C@@]3(O)C(O)=C1C2=O [MINOCYCLINE HYDROCHLORIDE] : IC50 was > 133 µM

Record summary for `CN1C(=O)CN=C(c2ccccc2)c2cc(Cl)ccc21` : reported IC50 = > 133 µM

# IC50 (molecule: `CS(=O)(=O)c1ccc(C2=C(c3ccccc3)C(=O)OC2)cc1` ) is > 133 µM

In plain terms, `C[C@H](CS)C(=O)N1CCC[C@H]1C(=O)O` has a documented IC50 of > 133 µM

get_value(item= `CC[C@@]1(O)C(=O)OCc2c1cc1n(c2=O)Cc2cc3c([N+](=O)[O-])cccc3nc2-1` , readout=IC50) returns > 133 µM

Briefly, IC50 measured for `Oc1ccc2c(c1)[C@@]13CCCC[C@@]1(O)[C@@H](C2)N(CC1CCC1)CC3` : > 133 µM

// IC50 lookup, molecule = CC1(C)S[C@@H]2[C@H](NC(=O)[C@H](NC(=O)N3CCNC3=O)c3ccccc3)C(=O)N2[C@H]1C(=O)O [AZLOCILLIN SODIUM] , result: > 133 µM

Documented IC50 of CN(C)CCOc1ccc(/C(=C(/CCCl)c2ccccc2)c2ccccc2)cc1 [TOREMIFENE CITRATE] : 115 µM

So, `O=S(=O)(O)CCS` ? Its IC50 was > 133 µM

Record `[H]/N=C(/N)N/C(=N/[H])NCCc1ccccc1` , field IC50: > 133 µM

Field IC50 (entry `O=C(NCCO[N+](=O)[O-])c1cccnc1` ) reads > 133 µM

The recorded IC50 for `CN(C)CCCN1c2ccccc2Sc2ccc(Cl)cc21` is > 133 µM

Input `Cc1cc(NC(=O)C2=C(O)c3ccccc3S(=O)(=O)N2C)no1` . Output IC50: > 133 µM

For reference, reported IC50 for `Cc1nc(-c2ccc(OCC(C)C)c(C#N)c2)sc1C(=O)O` stands at 42.9 µM

IC50 reading for CNCC[C@H](Oc1cccc2ccccc12)c1cccs1 [DULOXETINE HYDROCHLORIDE] : > 133 µM

Value of IC50 reported for the molecule `COc1ccc(/C=C/C(=O)Nc2ccccc2C(=O)O)cc1OC` is 41.5 µM

Just so you know, measured IC50 for Cc1nccn1CC1CCc2c(c3ccccc3n2C)C1=O (centres undefined) came out at > 133 µM

---

# METHOD: AUC in human at 750 mg, po TID or 1250 mg, po BID after 12 hrs
# Format: ADME, organism-based
# Set-up: dose 750 mg, time < 12 hr, route oral
# ASSAY_CONTEXT: in vivo
OUTCOME_MEASURE: AUC at 12 h (µM·h)
# unit: µM·h | format: bare number

Per the records, this molecule ( `Cc1c(O)cccc1C(=O)N[C@@H](CSc1ccccc1)[C@H](O)CN1C[C@H]2CCCC[C@H]2C[C@H]1C(=O)NC(C)(C)C` ) has AUC at 12 h equal to 77.8

---

# METHOD: AUC in human at 62.5 to 125 mg, po BID after 12 hrs
# Format: ADME, organism-based
# ASSAY_CONTEXT: in vivo
OUTCOME_MEASURE: AUC at 12 h (µM·h)
Give the value, in units of µM·h, as a plain number.

Measured AUC at 12 h, `COc1ccccc1Oc1c(NS(=O)(=O)c2ccc(C(C)(C)C)cc2)nc(-c2ncccn2)nc1OCCO` : 16.2

---

# METHOD: AUC in patient with possible depletion of intravascular volume at 25 mg, po QD after 24 hrs
# Type: ADME, organism-based
# Set-up: time < 24 hr, dose 25 mg, route oral
# ASSAY_CONTEXT: human, in vivo
OUTCOME_MEASURE: AUC at 24 h (µM·h)
The response must be a number in µM·h with no trailing unit.

The reported value for CCCCc1nc(Cl)c(CO)n1Cc1ccc(-c2ccccc2-c2nnn[n-]2)cc1.[K+] [LOSARTAN POTASSIUM] in terms of AUC at 24 h is 2.42

---

# TESTED_SYSTEM: UniProt:O95342
# METHOD: Inhibition of human BSEP overexpressed in Sf9 cell membrane vesicles assessed as uptake of [3H]-taurocholate in presence of ATP measured after 15 to 20 mins by membrane vesicle transport assay
pIC50: −log10 of the molar value.
What pIC50 was measured for each of the following?

So for `O=C(Cn1ccnc1[N+](=O)[O-])NCc1ccccc1` , the logged pIC50 turned out to be < 3.88

get_value(item= `OCCN1C[C@H](O)[C@@H](O)[C@H](O)[C@H]1CO` , readout=pIC50) returns < 3.88

Looking up `CCOc1cc2ncc(C#N)c(Nc3ccc(OCc4ccccn4)c(Cl)c3)c2cc1NC(=O)/C=C/CN(C)C` , I found its pIC50 recorded as 4.60

Record summary for CCOC(=O)C1=C[C@@H](OC(CC)CC)[C@H](NC(C)=O)[C@@H](N)C1 [OSELTAMIVIR PHOSPHATE] : reported pIC50 = < 3.88

Reported pIC50 ( `CCCc1cc(=O)[nH]c(=S)[nH]1` ) = < 3.88

Record summary for `O=C(Nc1cccc2c(=O)cc(-c3nnn[nH]3)oc12)c1ccc(OCCCCc2ccccc2)cc1` : reported pIC50 = 5.53

The molecule listed as CC1(C)O[C@@H]2[C@@H](CO[C@@]3(COS(N)(=O)=O)OC(C)(C)O[C@@H]23)O1 [TOPIRAMATE] has a reported pIC50 of < 3.88

Entry N[C@@H](C(=O)N[C@@H]1C(=O)N2C(C(=O)O)=C(Cl)CS[C@H]12)c1ccccc1 [CEFACLOR ANHYDROUS] — recorded pIC50 = < 3.88

---

# METHOD: Drug concentration at steady state in human at 5 to 10 mg, po QD after 24 hrs
# Type: ADME, organism-based
# ASSAY_CONTEXT: in vivo, read-out: Css
OUTCOME_MEASURE: concentration at 24 h (nM)
Response body: numeric value in nM, unit text excluded.

For CC(C)(C)C(=O)OCOP(=O)(COCCn1cnc2c(N)ncnc21)OCOC(=O)C(C)(C)C [ADEFOVIR DIPIVOXIL] the compound record lists concentration at 24 h as 32

Kindly note the recorded concentration at 24 h for CC(=O)O[C@]1(C(C)=O)CC[C@H]2[C@@H]3C[C@H](C)C4=CC(=O)CC[C@]4(C)[C@H]3CC[C@@]21C [MEDROXYPROGESTERONE ACETATE] , which is 1

---

# METHOD: AUC in human at 1 to 4 mg, po QD after 24 hrs
# Assay type: ADME, organism-based
# ASSAY_CONTEXT: in vivo
OUTCOME_MEASURE: AUC at 24 h (µM·h)
Report the value in µM·h with no unit label.

The reported value for CCC1=C(C)CN(C(=O)NCCc2ccc(S(=O)(=O)NC(=O)N[C@H]3CC[C@H](C)CC3)cc2)C1=O [GLIMEPIRIDE] in terms of AUC at 24 h is 3.4

---

# METHOD: AUC in human at 60 to 100 mg/m2, iv via infusion for 1 hr every 3 weeks measured after 1 hr
# Assay type: ADME, organism-based
# Set-up: time < 1 hr, route intravenous
# ASSAY_CONTEXT: in vivo
OUTCOME_MEASURE: AUC at 1 h
Answer by giving the amount and then stating its unit.

In plain terms, CC(=O)O[C@@]12CO[C@@H]1C[C@H](O)[C@@]1(C)C(=O)[C@H](O)C3=C(C)[C@@H](OC(=O)[C@H](O)[C@@H](NC(=O)OC(C)(C)C)c4ccccc4)C[C@@](O)([C@@H](OC(=O)c4ccccc4)[C@H]21)C3(C)C [DOCETAXEL ANHYDROUS] has a documented AUC at 1 h of 6.51 µM·h

---

# METHOD: AUC in human at 100 to 600 mg, po QD after 24 hrs
# Type: ADME, organism-based
# ASSAY_CONTEXT: in vivo
OUTCOME_MEASURE: AUC at 24 h (µM·h)
Report the figure in µM·h without appending any unit label.

Field AUC at 24 h (entry CCOC(=O)Nc1ccc(NCc2ccc(F)cc2)nc1N [FLUPIRTINE] ) reads 20
